Collected growth inhibition values appear next to each entry.
Assay: NCI Yeast Anticancer Drug Screen. Data for the rad50 strain (AID 155);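 note: 0% = growth of vehicle-only cultures of the same strain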
Conditions: S. cerevisiae rad50 strain growth inhibition; at 50.0 µM; hits give high values
About 79,000 compounds went through this panel and 15% of them were active in at least one assay; those are over-represented in the sample as a whole. Where a SMILES comes first, the peptide text is derived from it. The star is where a group is joined. Cbz = O=C(OCc1ccccc1)*; OBn = c1ccc(CO*)cc1
Readout name: growth inhibition (%)

                                    molecule  experimental_value
 0                             c1ccc2scnc2c1                21.2
 1  COc1ccc(C2SC(N)=Nc3c2c(C)nn3C(=O)c2ccccc2O)cc1 (configuration not stated)                15.9
 2                        CC(=O)c1ccc(C)cc1C                27.9
 3               O=[N+]([O-])c1ccc(F)c(Cl)c1               -10.7
 4  C=C1c2nc3ccccc3n2C=C(c2ccc(C)cc2)N1c1ccc(OC)cc1               -10.2
 5    COc1ccccc1OCc1nnc(SCC(=O)O)n1-c1ccccc1                3.75
 6  CCOC(=C\C=C\C1=[N+](C)c2ccccc2C1(C)C)/C=C/C=C1/N(C)c2ccccc2C1(C)C                17.6
 7  COc1cc2ccc3c4cc(OC)c(OCc5ccccc5)cc4cnc3c2cc1OC                40.5
 8  COC1C(O)=C2C(=O)OC(C)(O)/C=C/C=C\C=C/C=C/C(c3ccccc3)NC(=O)/C=C/C=C/C=C/C=C/C2(C)C1O (configuration not stated)                -1.7
 9               CN1NC(=O)SC(=O)c2ccccc2C1=O               -16.4
10  CCN(CC)C(=O)Cc1[nH][nH]c(=O)c1C(=O)N(CC)CC               -31.9
11                Cc1ccc(C)c(NC(=O)NC(C)C)c1                -0.6
12       NC(=S)N/N=C/c1cc([N+](=O)[O-])ccc1O                1.95
13  O=C(NC(CO)C(=O)N1CCCC1C(=O)OCc1ccccc1)OCc1ccccc1 (stereo not drawn) (Cbz-Ser-Pro-OBn; configuration not given here)                8.55
14          CCOC(=O)N1CCNCCN(C(=O)OCC)CCNCC1               -3.95
15  CNC(=O)O[C@H]1C(=O)O[C@@H]2C[C@H]3C(C)=C(O)C(=O)C[C@]3(C)[C@H]3[C@@H](O)[C@H](O)[C@@]4(C(=O)OC)OC[C@]32[C@@H]14                24.9
16  COC(=O)CC1(C)[C@H](O)[C@H]2OC(C)(C)O[C@H]2[C@@H]1O (some centres not stated)                 7.7
17           COC(=O)NC(S(=O)(=O)O)S(=O)(=O)O                 6.2
18  CC(Oc1ccccc1)C(O)(c1ccc(N(C)C)cc1)c1ccc(N(C)C)cc1 (configuration not stated)                 3.3
19                 O=S(O)CCCCCSSSCCCCCS(=O)O                 8.2
20         O=C(O)c1ccccc1/C=N\N(CCO)C1=NCCN1                21.4
21           O=c1nc(Oc2ccccc2)nc2ccc(Cl)nn12                 3.4

Taken from PubChem BioAssay (NCI).
